- Test system: Escherichia coli
- Procedure details: In vitro antibacterial activity against Escherichia coli NIHJ JC-2 bacteria
- Assay type: functional
Provide the recorded MIC for the entries that follow.
Record the value in µg/mL, omitting the unit from your answer.

Consider CO/N=C(\C(=O)N[C@@H]1C(=O)N2C(C(=O)[O-])=C(CSc3cc[n+](CC(=O)c4ccc(O)c(O)c4)cc3)CS[C@H]12)c1csc(N)n1 . Its measured MIC is 0.1

Consider Nc1nc(/C(=N/OCC(=O)O)C(=O)N[C@@H]2C(=O)N3C(C(=O)[O-])=C(CSc4cc[n+](CC(=O)c5ccc(O)c(O)c5)cc4)CS[C@H]23)cs1 . Its measured MIC is 0.05

Consider CC(C)(O/N=C(\C(=O)N[C@@H]1C(=O)N2C(C(=O)[O-])=C(C[n+]3ccccc3)CS[C@H]12)c1csc(N)n1)C(=O)O [CEFTAZIDIME] . Its measured MIC is 0.39

Consider CC(C)(O/N=C(\C(=O)N[C@@H]1C(=O)N2C(C(=O)[O-])=C(CSc3cc[n+](CC(=O)c4ccc(O)c(O)c4)cc3)CS[C@H]12)c1csc(N)n1)C(=O)O . Its measured MIC is 0.1

Consider CC(C)(O/N=C(\C(=O)N[C@@H]1C(=O)N2C(C(=O)[O-])=C(CSc3cc[n+](Cc4cc(O)c(O)cn4)cc3)CS[C@H]12)c1csc(N)n1)C(=O)O . Its measured MIC is 0.78
